# EXPERIMENTAL TARGET: T1, human IL-11 (AAH12506.1, Pro22-Leu199) (human, UniProt P20809 22-199)
# T1 construct: The range Pro22-Leu199 counts on AAH12506.1; The Octet runs say only 'human IL-11'; also called hIL-11
# T1 chain: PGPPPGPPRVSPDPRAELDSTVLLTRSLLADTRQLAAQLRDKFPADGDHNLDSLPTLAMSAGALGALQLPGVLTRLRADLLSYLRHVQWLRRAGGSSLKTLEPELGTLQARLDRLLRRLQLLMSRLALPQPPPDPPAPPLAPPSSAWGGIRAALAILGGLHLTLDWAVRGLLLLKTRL
# METHOD DESCRIPTION: BLI (Octet), antibody captured, human IL-11 in solution
Entries and their Kd
Kindly answer with a numeric value in nM, unit omitted.

Worked set:
Q: What Kd value was documented for this binder, hz18A10-VHm1 + hz18A10-VLm7 (antibody, V domains shown, Constant regions not restated for this antibody) VH: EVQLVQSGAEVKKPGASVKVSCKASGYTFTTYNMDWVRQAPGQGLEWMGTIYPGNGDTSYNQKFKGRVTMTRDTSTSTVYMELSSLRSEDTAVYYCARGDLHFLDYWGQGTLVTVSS VL: DIQMTQSPSSLSASVGDRVTITCKASQSVFRDVAWYQQKPGKAPKLLIYSASNRYTGVPSRFSGSGSGTDFTFTISSLQPEDIATYYCQHDYSSPYTFGQGTKLEIK ?
Ans: 2.4

Q: Cool, now hz18A10-VHm20 + hz18A10-VLm19 (antibody, V domains shown, Constant regions not restated for this antibody) VH: EVQLVQSGAEVKKPGASVKVSCKASGYTFTHYNMDWVRQAPGQGLEWMGTIYPGQGDTSYNQKFKGRVTMTRDTSTSTVYMELSSLRSEDTAVYYCARGDLYALDYWGQGTLVTVSS VL: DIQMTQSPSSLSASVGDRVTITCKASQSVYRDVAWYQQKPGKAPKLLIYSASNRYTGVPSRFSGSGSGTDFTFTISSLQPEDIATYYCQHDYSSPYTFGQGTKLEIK
Ans: 0.22

Next:
Q: What Kd value was documented for this binder, hz18A10-VHm9 + hz18A10-VLm19 (antibody, V domains shown, Constant regions not restated for this antibody) VH: EVQLVQSGAEVKKPGASVKVSCKASGYTFTTYDMSWVRQAPGQGLEWMGTIYPGNGDTSYNQKFKGRVTMTRDTSTSTVYMELSSLRSEDTAVYYCARGDLYALDYWGQGTLVTVSS VL: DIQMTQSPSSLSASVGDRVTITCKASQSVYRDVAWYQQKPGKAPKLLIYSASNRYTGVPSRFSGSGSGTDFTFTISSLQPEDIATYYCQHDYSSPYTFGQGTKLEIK ?
Ans: 0.538

Q: Cool, now hz18A10-VH + hz18A10-VLm11 (antibody, V domains shown, Constant regions not restated for this antibody) VH: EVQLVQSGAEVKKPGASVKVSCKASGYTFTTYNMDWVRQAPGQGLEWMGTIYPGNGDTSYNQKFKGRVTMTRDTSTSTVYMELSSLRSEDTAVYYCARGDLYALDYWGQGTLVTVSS VL: DIQMTQSPSSLSASVGDRVTITCKASQSVSNDVAWYQQKPGKAPKLLIYRASNRYTGVPSRFSGSGSGTDFTFTISSLQPEDIATYYCQHDYSSPYTFGQGTKLEIK
Ans: 1.8
